assay: Clearance in Sprague-Dawley rat at 1 mg/kg, iv or 10 mg/kg, po; assay type: ADME, organism-based; settings: in vivo
Quick rule for you: clearance at 20 mL/min/kg or higher means rule met, lower means rule not met.

> print(dat)
                                   compound         label
1  CN(c1ccc(-c2cc3cnccc3cc2O)nn1)C1CC(C)(C)NC(C)(C)C1      rule met
2  CN(c1ccc(-c2cc3cccnc3cc2O)nn1)C1CC(C)(C)NC(C)(C)C1      rule met
3  CN(c1ccc(-c2ccc(-c3cn[nH]c3)cc2O)nn1)C1CC(C)(C)NC(C)(C)C1      rule met
4  CC1(C)CC(Oc2ccc(-c3ccc(-c4cn[nH]c4)cc3O)nn2)CC(C)(C)N1 [BRANAPLAM]      rule met
5  CN(c1ccc(-c2ccc(-n3ccc(N)n3)cc2O)nn1)C1CC(C)(C)NC(C)(C)C1  rule not met
